Entries and their measured relative viability follow.
Tested on: 201T
assay_summary: relative viability (nuclei count vs DMSO), 5 days (fraction); higher = more cells survive
details: first compound 1 µM
Answer field: number only, no words.

See these solved cases before continuing.
| molecule | relative viability |
| --- | --- |
| O=c1cc(N2CCOCC2)oc2c(-c3cccc4c3sc3ccccc34)cccc12 + Nc1nc2[nH]cc(CCc3ccc(C(=O)N[C@@H](CCC(=O)O)C(=O)O)cc3)c2c(=O)[nH]1 [Pemetrexed] (partner 0.2 µM) | 0.359 |
| O=c1cc(N2CCOCC2)oc2c(-c3cccc4c3sc3ccccc34)cccc12 + CS(=O)(=O)N1CCN(Cc2cc3nc(-c4cccc5[nH]ncc45)nc(N4CCOCC4)c3s2)CC1 [Pictilisib] (partner 1 µM) | 0.661 |

IN: # assay system 201T: give relative viability of O=c1cc(N2CCOCC2)oc2c(-c3cccc4c3sc3ccccc34)cccc12 + CS(=O)(=O)CCNCc1ccc(-c2ccc3ncnc(Nc4ccc(OCc5cccc(F)c5)c(Cl)c4)c3c2)o1 [Lapatinib] (partner 2 µM)
OUT: 0.968

IN: # assay system 201T: give relative viability of CCN(CC)CCCCNc1ncc2cc(-c3cc(OC)cc(OC)c3)c(NC(=O)NC(C)(C)C)nc2n1 + C[C@]1(O)C[C@@H](c2nc(-c3ccc4ccc(-c5ccccc5)nc4c3)c3c(N)nccn32)C1 [Linsitinib] (partner 1 µM)
OUT: 1.02

---

System: UMC-11
assay_summary: relative viability (nuclei count vs DMSO), 5 days (fraction); higher = more cells survive
details: first compound 8 µM
Entries and their measured relative viability follow.
Answer field: number only, no words.

See these solved cases before continuing.
| compound | value |
| --- | --- |
| O=c1cc(-c2cccc3c2Sc2ccccc2S3)oc(N2CCOCC2)c1 + CC(=O)c1c(C)c2cnc(Nc3ccc(N4CCNCC4)cn3)nc2n(C2CCCC2)c1=O [Palbociclib] (partner 0.5 µM) | 0.345 |
| O=c1cc(-c2cccc3c2Sc2ccccc2S3)oc(N2CCOCC2)c1 + Cc1nc(NC(=O)N2CCC[C@H]2C(N)=O)sc1-c1ccnc(C(C)(C)C(F)(F)F)c1 [Alpelisib] (partner 2 µM) | 1.42 |
| O=c1cc(-c2cccc3c2Sc2ccccc2S3)oc(N2CCOCC2)c1 + C[C@]1(O)C[C@@H](c2nc(-c3ccc4ccc(-c5ccccc5)nc4c3)c3c(N)nccn32)C1 [Linsitinib] (partner 1 µM) | 1.23 |
| O=c1cc(-c2cccc3c2Sc2ccccc2S3)oc(N2CCOCC2)c1 + C[C@@H](Oc1cc(-c2cnn(C3CCNCC3)c2)cnc1N)c1c(Cl)ccc(F)c1Cl [Crizotinib] (partner 1 µM) | 0.701 |

Shifting focus to the compound that follows.
IN: Specify relative viability for O=c1cc(-c2cccc3c2Sc2ccccc2S3)oc(N2CCOCC2)c1 + Cc1cc(Nc2cc(N3CCN(C)CC3)nc(Sc3ccc(NC(=O)C4CC4)cc3)n2)n[nH]1 [Tozasertib] (partner 0.1 µM) and stop.
OUT: 0.234

---

System: COR-L23
assay_summary: relative viability (nuclei count vs DMSO), 5 days (fraction); higher = more cells survive
details: first compound 0.01 µM
Threshold 0.5: relative viability strictly smaller gives T, otherwise F.

| compound | target_entity | assigned_category |
| --- | --- | --- |
| O=c1cc(N2CCOCC2)oc2c(-c3cccc4c3sc3ccccc34)cccc12 + Cc1nc(Nc2ncc(C(=O)Nc3c(C)cccc3Cl)s2)cc(N2CCN(CCO)CC2)n1 [Dasatinib] (partner 0.075 µM) | COR-L23 | F |
| O=c1cc(N2CCOCC2)oc2c(-c3cccc4c3sc3ccccc34)cccc12 + COc1cc2c(Oc3ccc(NC(=O)C4(C(=O)Nc5ccc(F)cc5)CC4)cc3F)ccnc2cc1OCCCN1CCOCC1 [Foretinib] (partner 0.25 µM) | COR-L23 | F |
| CCN(CC)CCCCNc1ncc2cc(-c3cc(OC)cc(OC)c3)c(NC(=O)NC(C)(C)C)nc2n1 + N=C(N)NC(=N)NCCc1ccccc1 [Phenformin] (partner 250 µM) | COR-L23 | T |

IN: Given the entry O=c1cc(N2CCOCC2)oc2c(-c3cccc4c3sc3ccccc34)cccc12 + O=C(c1cc(Cc2n[nH]c(=O)c3ccccc23)ccc1F)N1CCN(C(=O)C2CC2)CC1 [Olaparib] (partner 8 µM) , would its reported relative viability be below 0.5?
OUT: T

IN: Given the entry O=c1cc(N2CCOCC2)oc2c(-c3cccc4c3sc3ccccc34)cccc12 + CC(=O)c1c(C)c2cnc(Nc3ccc(N4CCNCC4)cn3)nc2n(C2CCCC2)c1=O [Palbociclib] (partner 0.5 µM) , would its reported relative viability be below 0.5?
OUT: T

IN: Given the entry O=c1cc(N2CCOCC2)oc2c(-c3cccc4c3sc3ccccc34)cccc12 + Cc1cc(Nc2cc(N3CCN(C)CC3)nc(Sc3ccc(NC(=O)C4CC4)cc3)n2)n[nH]1 [Tozasertib] (partner 0.1 µM) , would its reported relative viability be below 0.5?
OUT: T

IN: Given the entry CCN(CC)CCCCNc1ncc2cc(-c3cc(OC)cc(OC)c3)c(NC(=O)NC(C)(C)C)nc2n1 + CC(C)C[C@H](NC(=O)[C@H](Cc1ccccc1)NC(=O)c1cnccn1)B(O)O [Bortezomib] (partner 0.002 µM) , would its reported relative viability be below 0.5?
OUT: F

IN: Given the entry O=c1cc(N2CCOCC2)oc2c(-c3cccc4c3sc3ccccc34)cccc12 + C[C@]1(O)C[C@@H](c2nc(-c3ccc4ccc(-c5ccccc5)nc4c3)c3c(N)nccn32)C1 [Linsitinib] (partner 1 µM) , would its reported relative viability be below 0.5?
OUT: F

IN: Given the entry O=c1cc(N2CCOCC2)oc2c(-c3cccc4c3sc3ccccc34)cccc12 + CC1(C)CCC(c2ccc(Cl)cc2)=C(CN2CCN(c3ccc(C(=O)NS(=O)(=O)c4ccc(N[C@H](CCN5CCOCC5)CSc5ccccc5)c(S(=O)(=O)C(F)(F)F)c4)cc3)CC2)C1 [Navitoclax] (partner 0.5 µM) , would its reported relative viability be below 0.5?
OUT: F

IN: Given the entry CCN(CC)CCCCNc1ncc2cc(-c3cc(OC)cc(OC)c3)c(NC(=O)NC(C)(C)C)nc2n1 + Cc1nc(Nc2ncc(C(=O)Nc3c(C)cccc3Cl)s2)cc(N2CCN(CCO)CC2)n1 [Dasatinib] (partner 0.075 µM) , would its reported relative viability be below 0.5?
OUT: F

IN: Given the entry CCN(CC)CCCCNc1ncc2cc(-c3cc(OC)cc(OC)c3)c(NC(=O)NC(C)(C)C)nc2n1 + Cc1nc(NC(=O)N2CCC[C@H]2C(N)=O)sc1-c1ccnc(C(C)(C)C(F)(F)F)c1 [Alpelisib] (partner 2 µM) , would its reported relative viability be below 0.5?
OUT: F

IN: Given the entry CCN(CC)CCCCNc1ncc2cc(-c3cc(OC)cc(OC)c3)c(NC(=O)NC(C)(C)C)nc2n1 + C[C@]1(O)C[C@@H](c2nc(-c3ccc4ccc(-c5ccccc5)nc4c3)c3c(N)nccn32)C1 [Linsitinib] (partner 1 µM) , would its reported relative viability be below 0.5?
OUT: F

IN: Given the entry CCN(CC)CCCCNc1ncc2cc(-c3cc(OC)cc(OC)c3)c(NC(=O)NC(C)(C)C)nc2n1 + Nc1ncn([C@H]2C[C@H](O)[C@@H](CO)O2)c(=O)n1 [Decitabine] (partner 2 µM) , would its reported relative viability be below 0.5?
OUT: T

IN: Given the entry CCN(CC)CCCCNc1ncc2cc(-c3cc(OC)cc(OC)c3)c(NC(=O)NC(C)(C)C)nc2n1 + COc1cccc2cc(-c3nc([C@H]4CC[C@H](C(=O)O)CC4)n4ncnc(N)c34)[nH]c12 [OSI-027] (partner 0.5 µM) , would its reported relative viability be below 0.5?
OUT: F

IN: Given the entry CCN(CC)CCCCNc1ncc2cc(-c3cc(OC)cc(OC)c3)c(NC(=O)NC(C)(C)C)nc2n1 + Cc1cc(Nc2cc(N3CCN(C)CC3)nc(Sc3ccc(NC(=O)C4CC4)cc3)n2)n[nH]1 [Tozasertib] (partner 0.1 µM) , would its reported relative viability be below 0.5?
OUT: T

---

Tested on: EPLC-272H
assay_summary: relative viability (nuclei count vs DMSO), 5 days (fraction); higher = more cells survive
details: first compound 0.1 µM
measure: relative viability
Answer field: number only, no words.

See these solved cases before continuing.
| compound | measure | value |
| --- | --- | --- |
| CCN(CC)CCCCNc1ncc2cc(-c3cc(OC)cc(OC)c3)c(NC(=O)NC(C)(C)C)nc2n1 + CC1(C)CCC(c2ccc(Cl)cc2)=C(CN2CCN(c3ccc(C(=O)NS(=O)(=O)c4ccc(N[C@H](CCN5CCOCC5)CSc5ccccc5)c(S(=O)(=O)C(F)(F)F)c4)cc3)CC2)C1 [Navitoclax] (partner 0.5 µM) | relative viability | 1.07 |
| CCN(CC)CCCCNc1ncc2cc(-c3cc(OC)cc(OC)c3)c(NC(=O)NC(C)(C)C)nc2n1 + Nc1ncn([C@H]2C[C@H](O)[C@@H](CO)O2)c(=O)n1 [Decitabine] (partner 2 µM) | relative viability | 0.359 |
| CCN(CC)CCCCNc1ncc2cc(-c3cc(OC)cc(OC)c3)c(NC(=O)NC(C)(C)C)nc2n1 + Cc1nc(Nc2ncc(C(=O)Nc3c(C)cccc3Cl)s2)cc(N2CCN(CCO)CC2)n1 [Dasatinib] (partner 0.075 µM) | relative viability | 0.322 |

Shifting focus to the compound that follows.
IN: Specify relative viability for CCN(CC)CCCCNc1ncc2cc(-c3cc(OC)cc(OC)c3)c(NC(=O)NC(C)(C)C)nc2n1 + CC(=O)c1c(C)c2cnc(Nc3ccc(N4CCNCC4)cn3)nc2n(C2CCCC2)c1=O [Palbociclib] (partner 0.5 µM) and stop.
OUT: 0.33

Values from the supplement of paper PMC10307832
